- System: TK-10 renal
- assay_remarks: NCI-60 one-dose screen, 48 h (100 = growth as untreated, 0 = no growth, -100 = all killed)
- condition_summary: 10 µM unless noted
About 83,000 compounds went through this panel and 20% of them were active in at least one assay; those are over-represented in the sample as a whole.

- molecule: "CC(O)CN1CCCCC1 (centres undefined)"
  display_unit: "%"
  growth: 110
- molecule: "Oc1ccc(Cl)cc1-c1cc(-c2ccc(F)cc2)n[nH]1"
  display_unit: "%"
  growth: 114
- molecule: "CC12CCC3C4(C)COC(c5ccccc5Cl)OC4CCC3(C)C1CC(C1=CCOC1=O)O2 (centres undefined)"
  display_unit: "%"
  growth: 94.9
- molecule: "CCOC(=O)c1c(/N=C2\\SC(=O)/C(=C\\C(=O)OC)N2NC)sc2c1CCN(C(=O)OCC)C2"
  display_unit: "%"
  growth: 121
- molecule: "N#Cc1c(Nc2ccccc2)nc2n(c1=O)-c1ccccc1Sc1ccccc1-2"
  display_unit: "%"
  growth: 105
- molecule: "COC(=O)c1cccc2c1N(C)c1c(cccc1C(=O)OC)CC2"
  display_unit: "%"
  growth: 121
- molecule: "OC(c1cc2cc(Br)ccc2c2cc(Br)ccc12)C1CCCCN1 (centres undefined)"
  display_unit: "%"
  growth: -90.5
- molecule: "O=S(=O)(CC(O)(c1ccccc1)c1ccccc1)CC(O)(c1ccccc1)c1ccccc1"
  display_unit: "%"
  growth: 107
- molecule: "O=C(O)C1CCCN1 (centres undefined)"
  display_unit: "%"
  growth: 98.4
- molecule: "C=C(C)[C@@H]1C[C@H](O)Cc2cc(F)ccc2N1"
  display_unit: "%"
  growth: 92.3
- molecule: "N#C/C(=C1C=C/C(=N/O)C(Cl)=C/1)c1ccc(Cl)cc1"
  display_unit: "%"
  growth: 51.2
- molecule: "CCN1C(=O)N(CC)C2C1NN=c1s/c(=C\\c3cccnc3)c(=O)n12 (centres undefined)"
  display_unit: "%"
  growth: 80.7
- molecule: "COc1ccc(-c2c(N)n[nH]c2-c2cc(OC)c3c(c2)OCCO3)cc1"
  display_unit: "%"
  growth: 71.3
- molecule: "CSc1nc2c(c(=O)[nH]1)C(c1ccc(C)cc1)C=C(C(=O)O)N2 (centres undefined)"
  display_unit: "%"
  growth: 118
- molecule: "COc1cc(C2CC(c3ccc4c(c3)OCO4)=NN2C(C)=O)cc(OC)c1OC (centres undefined)"
  display_unit: "%"
  growth: 38.2
- molecule: "O=C(O)Cc1cccc(=O)c(O)c1C(=O)O"
  display_unit: "%"
  growth: 108
- molecule: "FC(F)(F)c1cccc(-c2cn3c(ccc4ccccc43)n2)c1"
  display_unit: "%"
  growth: 122
- molecule: "CCN(CC)c1ccc(/C=C2\\Oc3ccc(O)c(I)c3C2=O)cc1"
  display_unit: "%"
  growth: 74.2
- molecule: "O=C1NC(=C(Cl)Cl)/C(=N/S(=O)(=O)N2CCC(C3(C(F)(F)F)N=N3)CC2)N1"
  display_unit: "%"
  growth: 97

----------
- System: PC-3 prostate
- assay_remarks: NCI-60 one-dose screen, 48 h
- condition_summary: 10 µM unless noted
About 83,000 compounds went through this panel and 20% of them were active in at least one assay; those are over-represented in the sample as a whole. The source made the active and inactive calls. How the source made its calls: active means growth percent below 10; inactive means the rest.
Labels: 1 = active, -1 = inactive

- mol: "CC(C)(C)n1cc(-c2ccnc(NCCCNS(=O)(=O)c3ccc(Cl)cc3)c2)c(-c2cccc(O)c2)n1"
  answer_label: 1
- mol: "Nc1nc(=O)c2ccccc2s1"
  answer_label: -1
- mol: "CC(C)(C)n1cc(-c2ccnc(NCCNS(=O)(=O)c3ccc(Cl)cc3)c2)c(-c2cccc(O)c2)n1"
  answer_label: -1
- mol: "COc1ccc(/C=N\\NC(=O)CN2CCN(c3cc4c(cc3F)c(=O)c(C(=O)N/N=C/c3ccc(OC)c(OC)c3)cn4C3CC3)CC2)cc1OC"
  answer_label: -1
- mol: "C=C[C@@H]1C[C@H](O)Cc2c(C)cc(C)cc2N1"
  answer_label: -1
- mol: "COc1cc(NC(N)=NCCC(C)(C)Oc2ccc(C(F)(F)F)cc2)ncc1C#N"
  answer_label: -1
- mol: "COc1ccc(-c2nc3sc(-c4cc(OC)c(OC)c(OC)c4)nn3c2/C=C2/C(=O)Nc3ccc(F)cc32)cc1"
  answer_label: 1
- mol: "C=C(C)[C@@H]1CC[C@]2(C(=O)O)CC[C@]3(C)[C@H](CC[C@@H]4[C@@]5(C)C[C@@H](CC#Cc6ccc(C(F)(F)F)cc6)[C@H](O)C(C)(C)[C@@H]5CC[C@]43C)[C@@H]12"
  answer_label: 1
- mol: "O=[N+]([O-])c1cc(Cl)c2[nH]c3c(Cl)cc([N+](=O)[O-])cc3c2c1"
  answer_label: 1
- mol: "COc1ccc(S(=O)(=O)Nc2cc(/C=C\\c3cc(OC)c(OC)c(OC)c3)cc(OC)c2OC)cc1"
  answer_label: 1
- mol: "O=c1[nH]c(-c2ccccc2)nc(CN2CCCCC2)c1O"
  answer_label: -1
- mol: "O=C1NN(C(=O)c2ccc(Cl)cc2)C(c2ccccc2)=N/C1=C\\c1cn(-c2ccccc2)nc1-c1ccccc1"
  answer_label: -1
- mol: "CCOC(=O)c1c(/N=C2\\SC(=O)/C(=C\\C(=O)OC)N2NC)sc2c1CCN(C(=O)OCC)C2"
  answer_label: -1
- mol: "Nc1ccc(C(=O)CSc2nc3ccccc3[nH]2)cc1"
  answer_label: -1
- mol: "O=C1C(Cl)=C(Nc2ccccn2)C(=O)c2ccccc21"
  answer_label: -1
